TARGET_ENTITY: N-type calcium channel subunits (α1B, α2δ, and β3a) (Homo sapiens)
EXPERIMENT_DESCRIPTION: Block of Cav2.2 channel, whole cell voltage clamp, manual and PatchXpress
Type: cell-based
MEASUREMENT_SETUP: Table 5; table follows Assay Example 3 (whole cell voltage clamp / PatchXpress); assay not given
Assignment: determine reported IC50 for the given compounds.

Past entries and their recorded results:
Query IC50 for CC(C)(C)NC(=O)CN[C@H]1C[C@H](CS(=O)(=O)c2cccc(C(F)(F)F)c2)C1
3760 nM

Identify measured IC50 corresponding to O=C(CN[C@H]1CC[C@@H](S(=O)(=O)c2cccc(C(F)(F)F)c2)CC1)N1CCOCC1
4720 nM

Indicate its recorded IC50; the compound in question is O=C(NC[C@H]1C[C@H](S(=O)(=O)c2cccc(C(F)(F)F)c2)C1)c1ccc(C(F)(F)F)cn1
190 nM

Look up IC50 for the entries below, preserving their order.
1. O=C(NC[C@]1(O)CC[C@@H](S(=O)(=O)c2cccc(C(F)(F)F)c2)CC1)c1ccc(F)c(C(F)(F)F)c1
2. CC1(NC(=O)CN[C@H]2CC[C@@](F)(S(=O)(=O)c3cccc(C(F)(F)F)c3)CC2)CCC1
3. O=C(N[C@H]1CC[C@H](S(=O)(=O)c2cccc(C(F)(F)F)c2)CC1)c1cc(F)cc(C(F)(F)F)c1
4. CC(C)(C)c1nc([C@H]2C[C@@H](S(=O)(=O)c3cccc(C(F)(F)F)c3)C2)c[nH]1

1: 870 nM; 2: 120 nM; 3: 550 nM; 4: 1830 nM

====

Record form. Attribute: IC50. Fill in for each entry.
TARGET_ENTITY: human α1G T-type channels (Homo sapiens, UniProt O43497)
Sequence (O43497 whole entry): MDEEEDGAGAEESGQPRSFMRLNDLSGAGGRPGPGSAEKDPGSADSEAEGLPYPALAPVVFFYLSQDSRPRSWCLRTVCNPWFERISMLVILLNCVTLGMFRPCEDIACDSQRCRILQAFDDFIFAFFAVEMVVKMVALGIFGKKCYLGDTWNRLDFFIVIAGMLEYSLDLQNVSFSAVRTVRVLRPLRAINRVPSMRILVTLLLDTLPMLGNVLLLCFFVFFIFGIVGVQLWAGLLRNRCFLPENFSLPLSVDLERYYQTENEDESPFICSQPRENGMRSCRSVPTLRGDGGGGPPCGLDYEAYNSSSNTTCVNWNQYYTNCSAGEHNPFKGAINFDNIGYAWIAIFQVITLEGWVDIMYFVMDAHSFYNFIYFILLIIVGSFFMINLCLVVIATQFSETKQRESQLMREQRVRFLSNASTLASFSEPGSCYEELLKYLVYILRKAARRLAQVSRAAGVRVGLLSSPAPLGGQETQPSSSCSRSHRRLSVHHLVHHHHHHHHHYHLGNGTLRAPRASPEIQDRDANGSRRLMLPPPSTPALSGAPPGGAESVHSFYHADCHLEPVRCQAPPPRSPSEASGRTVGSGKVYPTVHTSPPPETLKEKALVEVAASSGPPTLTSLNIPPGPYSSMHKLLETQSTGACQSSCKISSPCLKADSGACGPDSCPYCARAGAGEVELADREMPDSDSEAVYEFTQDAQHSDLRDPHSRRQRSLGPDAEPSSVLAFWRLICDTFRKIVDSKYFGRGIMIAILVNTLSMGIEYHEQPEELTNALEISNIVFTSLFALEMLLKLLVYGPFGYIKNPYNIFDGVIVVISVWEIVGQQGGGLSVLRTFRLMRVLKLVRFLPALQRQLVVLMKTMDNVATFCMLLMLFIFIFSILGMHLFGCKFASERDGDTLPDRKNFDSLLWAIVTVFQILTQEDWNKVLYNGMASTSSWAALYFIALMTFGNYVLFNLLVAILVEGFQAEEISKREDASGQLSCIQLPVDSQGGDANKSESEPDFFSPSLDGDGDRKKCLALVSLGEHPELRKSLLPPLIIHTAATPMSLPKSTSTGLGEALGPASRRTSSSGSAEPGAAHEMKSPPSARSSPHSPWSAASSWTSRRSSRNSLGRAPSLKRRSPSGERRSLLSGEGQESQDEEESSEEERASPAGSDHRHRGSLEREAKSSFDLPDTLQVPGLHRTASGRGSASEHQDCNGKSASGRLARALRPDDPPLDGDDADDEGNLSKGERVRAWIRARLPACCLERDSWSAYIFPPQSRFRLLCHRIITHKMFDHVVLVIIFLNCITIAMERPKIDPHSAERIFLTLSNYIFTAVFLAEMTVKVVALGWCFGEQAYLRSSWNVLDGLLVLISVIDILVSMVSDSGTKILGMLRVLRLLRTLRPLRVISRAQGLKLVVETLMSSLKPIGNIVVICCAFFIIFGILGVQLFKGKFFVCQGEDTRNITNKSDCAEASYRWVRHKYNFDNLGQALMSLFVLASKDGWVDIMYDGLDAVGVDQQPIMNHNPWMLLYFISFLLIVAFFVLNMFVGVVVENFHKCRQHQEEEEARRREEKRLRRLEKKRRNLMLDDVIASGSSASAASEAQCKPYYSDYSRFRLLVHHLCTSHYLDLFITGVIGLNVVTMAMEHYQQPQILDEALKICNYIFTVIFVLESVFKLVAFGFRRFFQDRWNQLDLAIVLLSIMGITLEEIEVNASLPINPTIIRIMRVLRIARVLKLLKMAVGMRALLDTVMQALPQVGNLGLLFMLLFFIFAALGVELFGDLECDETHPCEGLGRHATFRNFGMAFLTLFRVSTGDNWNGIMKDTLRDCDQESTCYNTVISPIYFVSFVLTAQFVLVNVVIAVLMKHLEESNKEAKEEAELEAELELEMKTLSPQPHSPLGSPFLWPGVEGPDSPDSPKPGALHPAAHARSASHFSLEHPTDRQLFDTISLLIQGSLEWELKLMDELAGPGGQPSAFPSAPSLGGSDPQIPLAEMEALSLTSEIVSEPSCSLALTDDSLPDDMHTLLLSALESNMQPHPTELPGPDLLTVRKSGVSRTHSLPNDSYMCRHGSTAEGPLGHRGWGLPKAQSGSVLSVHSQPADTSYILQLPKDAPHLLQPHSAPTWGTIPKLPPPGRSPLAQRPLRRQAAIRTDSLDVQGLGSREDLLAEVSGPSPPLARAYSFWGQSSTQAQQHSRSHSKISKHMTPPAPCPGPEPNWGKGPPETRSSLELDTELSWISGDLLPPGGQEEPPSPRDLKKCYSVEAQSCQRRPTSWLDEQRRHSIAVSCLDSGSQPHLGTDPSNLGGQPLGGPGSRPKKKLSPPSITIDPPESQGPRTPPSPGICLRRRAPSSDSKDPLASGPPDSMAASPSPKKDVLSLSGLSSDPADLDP
EXPERIMENT_DESCRIPTION: T-type calcium channel block, whole cell patch clamp, α1G
MEASUREMENT_SETUP: HEK cells stably expressing human α1G; mainly non-inactivated protocol; values above 10,000 nM represented as 10000

Some solved entries appear below for comparison.
Quick one: give measured IC50 for O=S(=O)(CCC(F)(F)F)N[C@H]1CC[C@@](F)(S(=O)(=O)c2cccc(C(F)(F)F)c2)CC1
630 nM

Report IC50, nothing else, for this molecule: CC1(NC(=O)CN[C@H]2CC[C@](F)(S(=O)(=O)c3cccc(C(F)(F)F)c3)CC2)CCC1
2450 nM

Entry Cc1nc(C(F)(F)F)ccc1NC(=O)[C@H]1C[C@H](S(=O)(=O)c2cccc(C(F)(F)F)c2)C1 needs its IC50 filled in; supply it.
> 10000 nM

Answer with reported IC50 of CC(C)(C(=O)Nc1nc2cc(C(F)(F)F)ccc2[nH]1)S(=O)(=O)c1cccc(C(F)(F)F)c1
900 nM

For the molecule COc1cc(Cl)ccc1C(=O)N[C@H]1CC[C@@H](S(=O)(=O)c2cccc(C(F)(F)F)c2)CC1 , give its measured IC50 value.
2630 nM

Give IC50 for each listed item.
1. CN(C(=O)c1ccc(C(F)(F)F)cc1S(C)(=O)=O)[C@H]1CC[C@@](F)(S(=O)(=O)c2cc(F)cc(C(F)(F)F)c2)CC1
2. CC(C)(C)NC(=O)CN[C@H]1CC[C@@H](S(=O)(=O)c2cccc(C(F)(F)F)c2)CC1

1: 690 nM; 2: > 10000 nM

====

TARGET_ENTITY: human α1G T-type channels (Homo sapiens)
EXPERIMENT_DESCRIPTION: T-type calcium channel block, whole cell patch clamp, α1G
MEASUREMENT_SETUP: HEK cells stably expressing human α1G; mainly non-inactivated protocol; values above 10,000 nM represented as 10000
MEASURED_QUANTITY: IC50 (µM)
Give bare numbers, in µM.

Provide only the value of recorded IC50 for CC(C)(NC(=O)[C@H]1C[C@H](S(=O)(=O)c2cccc(C(F)(F)F)c2)C1)c1ccc(F)cc1 [Compound 402]
0.64

Give the measured IC50 for O=C(Nc1cccc(C(F)(F)F)n1)[C@H]1C[C@@H](S(=O)(=O)c2cccc(C(F)(F)F)c2)C1 [Compound 412]
6.81

Look up and report measured IC50 for this entry: Cn1nc(C(F)(F)F)cc1C(=O)NCC1(C)CCC(S(=O)(=O)c2cccc(C(F)(F)F)c2)CC1 (stereo not shown) [Compound 206]
3.52

Hello, I would appreciate it if you could give IC50 for each entry below.
1. O=C(N[C@H]1CC[C@@](F)(S(=O)(=O)c2cccc(C(F)(F)F)c2)CC1)c1ccc(Cl)cc1Cl [Compound 270]
2. CC(C)S(=O)(=O)c1cc(C(F)(F)F)cnc1C(=O)N[C@H]1CC[C@@H](CS(=O)(=O)c2cccc(C(F)(F)F)c2)CC1 [Compound 342]
3. CC(C)(CNS(=O)(=O)c1cccc2nonc12)S(=O)(=O)c1cccc(C(F)(F)F)c1 [Compound 493]
4. CC(C)(CNS(=O)(=O)c1ccc(C(F)(F)F)cc1Cl)S(=O)(=O)c1cccc(C(F)(F)F)c1 [Compound 498]
5. O=C(NC[C@H]1C[C@H](S(=O)(=O)c2cc(F)cc(C(F)(F)F)c2)C1)c1ccc(F)c(C(F)(F)F)c1 [Compound 389]
6. CC(C)(C(=O)Nc1ccc(Oc2ccc(F)c(Cl)c2)nc1)S(=O)(=O)c1cccc(C(F)(F)F)c1 [Compound 524]
7. CC(C)(CCNC(=O)c1ccc(F)c(C(F)(F)F)c1)S(=O)(=O)c1cc(F)cc(C(F)(F)F)c1 [Compound 533]

1. 2.54
2. 1.71
3. 0.68
4. 0.26
5. 6.08
6. 0.38
7. 0.35

====

TARGET_ENTITY: Human Cav 2.2 channels (Homo sapiens, UniProt Q00975)
EXPERIMENT_DESCRIPTION: Fluorescent assay for CaV2.2 channels using potassium depolarization (VIPR/FLIPR)
Assay type: cell-based
MEASUREMENT_SETUP: FLIPR data; ratio closed/inactivated IC50
Can you tell me CAv2.2 IC50 Ratio closed/inact. for the items I'm about to list?

Specify CAv2.2 IC50 Ratio closed/inact. for CC(C)([C@H]1C[C@H](NC(=O)CC2(N)CCCCC2)C1)S(=O)(=O)c1cc(F)cc(C(F)(F)F)c1 [Compound 654] and stop.
5.9

Recall and state the measured CAv2.2 IC50 Ratio closed/inact. for CC(C)([C@H]1C[C@H](NS(=O)(=O)c2ccc(F)c(Cl)c2)C1)S(=O)(=O)c1cccc(C(F)(F)F)c1 [Compound 664] .
7.6

Provide one value: measured CAv2.2 IC50 Ratio closed/inact. of CC(C)(C[C@H]1C[C@@H](NC(=O)c2ccc(C(F)(F)F)nc2)C1)S(=O)(=O)c1cccc(C(F)(F)F)c1 [Compound 736]
16.9

Give reported CAv2.2 IC50 Ratio closed/inact. value for CC(C)S(=O)(=O)c1cc(C(F)(F)F)cnc1C(=O)N[C@H]1C[C@@H](CC(C)(C)S(=O)(=O)c2cccc(C(F)(F)F)c2)C1 [Compound 729]
46

Fill in reported CAv2.2 IC50 Ratio closed/inact. for this entry: CC(C)(C[C@H]1C[C@@H](NC(=O)CC2(N)CCCCC2)C1)S(=O)(=O)c1cccc(C(F)(F)F)c1 [Compound 739]
2.9

Next:
Look up CAv2.2 IC50 Ratio closed/inact. of CC(C)([C@H]1C[C@@H](NC(=O)c2ccc(S(C)(=O)=O)cc2Cl)C1)S(=O)(=O)c1cccc(C(F)(F)F)c1 [Compound 577] and report it.
15.6

====

Answer each item with its documented pIC50.
TARGET_ENTITY: Human Cav 2.2 channels (Homo sapiens)
EXPERIMENT_DESCRIPTION: Fluorescent assay for CaV2.2 channels using potassium depolarization (VIPR/FLIPR)
Assay type: cell-based
MEASUREMENT_SETUP: FLIPR data; inactivated state; read-out: CAv2.2 IC50 Inact.
Answers are plain numbers, as −log10 of the molar value.

Below: 2 compounds and their reported pIC50.
In one line, give reported pIC50 of the entry CC(C)([C@H]1C[C@H](NC(=O)CC2(N)CCCCC2)C1)S(=O)(=O)c1cc(F)cc(C(F)(F)F)c1 .
5.84

Report pIC50, nothing else, for this compound: CC(C)([C@H]1C[C@H](CNc2ccc(Cl)c(F)c2)C1)S(=O)(=O)c1cccc(C(F)(F)F)c1
6.52

# batch: return pIC50 for each of the 3 compounds below
1. CC(C)([C@H]1C[C@@H](NS(=O)(=O)c2ccc(F)c(Cl)c2)C1)S(=O)(=O)c1cc(F)cc(C(F)(F)F)c1
2. O=C(NC[C@H]1C[C@H](S(=O)(=O)c2cc(F)cc(C(F)(F)F)c2)C1)c1ccc(Cl)cn1
3. CS(=O)(=O)c1cc(Cl)ccc1C(=O)NC[C@H]1C[C@H](S(=O)(=O)c2cccc(OC(F)(F)F)c2)C1

5.99
6.05
6.11

The origin of these recorded values is patent US20120245137A1.
